target: T1, human CD8 alpha (CD8A) on primary human CD8+ T cells (human, UniProt P01732 22-235); experiment: flow cytometry, human CD8+ T cells, 2 uM FN3
T1 construct: whole, on cells; also called hCD8A
T1 sequence (P01732 22-235): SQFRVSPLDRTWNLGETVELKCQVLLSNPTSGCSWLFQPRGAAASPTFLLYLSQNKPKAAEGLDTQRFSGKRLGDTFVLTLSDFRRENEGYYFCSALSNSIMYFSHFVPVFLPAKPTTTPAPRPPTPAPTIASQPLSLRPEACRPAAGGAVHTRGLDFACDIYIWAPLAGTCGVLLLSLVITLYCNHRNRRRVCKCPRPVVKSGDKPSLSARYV
OBSERVED PROPERTY: Human T-cell Binding 2 uM (MFI)

[
  {
    "BINDER": "P283BR9P1363_E4 (designed binder, FN3 domain) LPAPKNLVVSRVTEDSARLSWIKSETSQPAFDSFLIQYQESEKVGEAIVLTVPGSERSYDLTGLKPGTEYTVSIYGVDVKWEGNRPVASNPLSAIFTT",
    "OBSERVED PROPERTY": "Human T-cell Binding 2 uM (MFI)",
    "UNIT STRING": "MFI",
    "VALUE MEASURED": 10800
  },
  {
    "BINDER": "P282CR9P1358_C2 (designed binder, FN3 domain) LPAPKNLVVSRVTEDSARLSWTAPDAAFDSFKIAYPEWPSNGEAIVLTVPGSERSYDLTGLKPGTEYAVFIWGVKGGAFSNPLSAIFTT",
    "OBSERVED PROPERTY": "Human T-cell Binding 2 uM (MFI)",
    "UNIT STRING": "MFI",
    "VALUE MEASURED": 10100
  }
]

These measurements were taken from patent US20210032312A1.
